Data provenance: the supplement of paper PMC13380429

test system: Caco-2; experiment: cell viability relative to DMSO; higher = less toxic; details: 72 h; 10 nM
Listing: cell viability of selected compounds
Note: state the figure and append the unit.

Recorded cell viability, per entry:
1. CCO[C@@H]1OC(=O)C[C@@H]1NC(=O)[C@@H]1CCCN1C(=O)[C@@H](NC(=O)c1ccc(N)c(Cl)c1)C(C)(C)C
104%
2. O=C(c1ccc(C(=O)N2CCC(N3CCCC3)CC2)c(Nc2ccccc2)c1)N1CCC(N2CCCC2)CC1
97.7%
3. Cc1ccccc1C(=O)c1ccc(Nc2ccc(Br)cc2N)cc1Cl
95.5%
4. CC(=O)O[C@]1(C(C)=O)CC[C@H]2[C@@H]3C=C(C)C4=CC(=O)CC[C@@H]4[C@H]3CC[C@@]21C [nomegestrol-acetate]
97.3%
5. CN[C@@H]1[C@@H](O)[C@@H](O[C@@H]2[C@@H](O)[C@H](O[C@H]3OC(CN)=CC[C@H]3N)[C@@H](N)C[C@H]2N)OC[C@]1(C)O [Sisomicin (sulfate)]
100%
6. CCn1c(-c2nonc2N)nc2cncc(C(=O)N3CC[C@H](N)C3)c21
99.1%
7. Cc1cc(Nc2ncnc3ccc(NC4=NC(C)(C)CO4)cc23)ccc1Oc1ccn2ncnc2c1
103%
8. Clc1cc(Cl)c(OCC#CI)cc1Cl
90.2%

Give the measured cell viability of O=C(NCCN1CCC(n2c(=O)[nH]c3ccccc32)CC1)c1cc2cc(F)ccc2[nH]1 .
101%

// query: CC(C)(C)c1cc(C=C(C#N)C#N)cc(Br)c1O
96.8%

Can you check Cc1cc2c(N3CCCC3)nc(N3CCCC3)nc2n1C next?
92.2%

Consider next the compound N[C@@H](Cc1cc(CP(=O)(O)O)cc(-c2ccccc2Cl)c1)C(=O)O in the same way.
91.5%

Similarly, O=C1CNC(=O)CN1 ?
102%
